Metric name: melting point (°C)

[I] COc1nc2ccc(Br)cc2cc1C(c1ccc(Cl)cc1)C1(O)CCN(Cc2cccc(F)c2)CC1 (centres unmarked)
[II] COc1nc2ccccc2cc1C(c1ccccc1)C1(O)CCNCC1 (centres unmarked)
Sorting by melting point in descending order, would I or II appear first? # respond with the chosen item's label
I

* * *

Metric name: melting point (°C)

INSERT INTO assay_data (compound, value) VALUES
  ('O=c1[nH]c2ccc(Br)cc2cc1C(c1ccc(Cl)cc1)C1(O)CCN(Cc2ccccc2)CC1 (centres unmarked) [Compound 10]', 244),
  ('COc1nc2ccc(Br)cc2cc1C(c1ccc(SC)cc1)C1(O)CCNCC1 (centres unmarked) [Compound 9]', 204),
  ('COc1nc2ccc(CO)cc2cc1C(c1ccc(Cl)cc1)C1(O)CCN(Cc2ccccc2)CC1 (centres unmarked) [Compound 22]', 196),
  ('CCn1c(=O)c(C(c2ccc(Cl)cc2)C2(O)CCN(Cc3ccccc3)CC2)cc2cc(-c3cccnc3)ccc21 (centres unmarked) [Compound 3]', 172),
  ('OC1(C(c2ccc(Cl)cc2)c2cc3cc(Br)ccc3nc2N2CCOCC2)CCN(CCc2ccccc2)CC1 (centres unmarked) [Compound 1]', 158),
  ('COc1nc2ccc(Br)cc2cc1C(c1ccc(Cl)cc1)C1(O)CCN(C)CC1 (centres unmarked) [Compound 16]', 193),
  ('CCn1c(=O)c(C(c2ccc(Cl)cc2)C2(O)CCN(Cc3ccccc3)CC2)cc2cc(Br)ccc21 (centres unmarked) [Compound 2]', 212);
